- testedSystem: recombinant human ATX beta isoform with N-terminal purification tag (human, UniProt Q13822 49-863)
- assayRemarks: Fab-His ELISA
measuredMetric: fold above background

Answered cases to consult:
{"binder": "Fab F7 (VH H2, VL L6) (Fab, V domains shown, Soluble Fab-His) VH: QVQLVQSGAEVKKPGSSVKVSCKASGGTFSSYAISWVRQAPGQGLEWMGGIIPIFGTANYAQKFQGRVTITADESTSTAYMELSSLRSEDTAVYYCARDDLPLGRLDYWGQGTLVTVSS VL: EIVLTQSPATLSLSPGERATLSCRASQSVNSWLAWYQQKPGQAPRLLIYYASNRATGIPARFSGSGSGTDFTLTISSLEPEDFAVYYCQQGHRWPFTFGQGTKVEIK", "result": "≥ 6 fold"}
{"binder": "Fab F11 (VH H2, VL L9) (Fab, V domains shown, Soluble Fab-His) VH: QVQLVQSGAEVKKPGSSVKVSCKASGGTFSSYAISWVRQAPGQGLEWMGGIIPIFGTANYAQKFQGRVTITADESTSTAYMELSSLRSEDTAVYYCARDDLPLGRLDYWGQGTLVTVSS VL: EIVLTQSPATLSLSPGERATLSCRASQSVADFLAWYQQKPGQAPRLLIYTASNRATGIPARFSGSGSGTDFTLTISSLEPEDFAVYYCQQGSTAPYTFGQGTKVEIK", "result": "≥ 6 fold"}

Now look at this one.
According to the records, this binder Fab F5 (VH H4, VL L4) (Fab, V domains shown, Soluble Fab-His; converted to mAb B1) VH: EVQLVQSGAEVKKPGESLKISCKGSGYSFTSYWIGWVRQMPGKGLEWMGIIYPGDSDTRYSPSFQGQVTISADKSISTAYLQWSSLKASDTAMYYCARNWSEALYVVFDYWGQGTLVTVSS VL: EIVLTQSPATLSLSPGERATLSCRASQSVANFLAWYQQKPGQAPRLLIYYASNRATGIPARFSGSGSGTDFTLTISSLEPEDFAVYYCQQYFSAPFTFGQGTKVEIK displays fold above background of ≥ 6 fold
